Catalogue of inhibition at 0.3 µM values
Molecular target: P2X7 receptor (Homo sapiens)
Construct: host or cells: THP-1 cells differentiated with LPS and IFN-γ
Sequence (Q99572 1-595): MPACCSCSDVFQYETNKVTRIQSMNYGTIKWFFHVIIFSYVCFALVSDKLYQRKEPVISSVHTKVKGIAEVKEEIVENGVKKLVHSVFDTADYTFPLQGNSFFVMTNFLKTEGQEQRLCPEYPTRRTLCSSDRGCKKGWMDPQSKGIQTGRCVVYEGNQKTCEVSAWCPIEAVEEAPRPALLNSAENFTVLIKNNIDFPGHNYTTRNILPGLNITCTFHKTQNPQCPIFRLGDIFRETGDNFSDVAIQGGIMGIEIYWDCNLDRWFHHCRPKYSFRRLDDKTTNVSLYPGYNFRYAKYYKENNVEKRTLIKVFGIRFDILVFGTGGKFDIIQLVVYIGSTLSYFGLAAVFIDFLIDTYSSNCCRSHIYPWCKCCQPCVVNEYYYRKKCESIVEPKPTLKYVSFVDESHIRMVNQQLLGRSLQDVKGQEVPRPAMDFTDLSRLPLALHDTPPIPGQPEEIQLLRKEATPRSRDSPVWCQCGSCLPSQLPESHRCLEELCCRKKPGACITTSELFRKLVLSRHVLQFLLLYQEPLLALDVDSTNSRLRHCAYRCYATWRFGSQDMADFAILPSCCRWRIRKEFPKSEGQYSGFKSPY
Test: IL-1β release assay in differentiated THP-1 cells stimulated with BzATP (Example 9)
Type: cell-based
Settings: 0.3 μM compound; differentiated THP-1 cells, BzATP 250 uM; "+" class symbols; read-out: IL-1β % Inhib. @ 0.3 μM

>>> result("CC(C(=O)Nc1cccc2c(=O)n(CCS(C)(=O)=O)ccc12)c1ccc(Cl)cc1 (centres unmarked) [Compound 1631]")
"0 to 25%"
>>> result("O=C(Cc1ccc(Cl)c(C(F)(F)F)c1)Nc1cccc2c(=O)n(Cc3ccccn3)ccc12 [Compound 1628]")
"≥ 76%"
>>> result("CS(=O)(=O)CCn1ccc2c(NC(=O)Cc3ccc(Cl)c(C(F)(F)F)c3)cccc2c1=O [Compound 1630]")
"≥ 76%"

## Task // fetch inhibition at 0.3 µM given entry CS(=O)(=O)CCn1ccc2c(NC(=O)CC3(O)CCCCCC3)cccc2c1=O [Compound 1625]
## Result 0 to 25%

## Task For the molecule CC1(C)CCCC(O)(CC(=O)Nc2cccc3c(=O)n(CCS(C)(=O)=O)ccc23)C1 (centres unmarked) [Compound 1629] , give its measured inhibition at 0.3 µM value.
## Result 26 to 50%

## Task Please supply the value of reported inhibition at 0.3 µM for the item CO[C@](C(=O)Nc1cccc2c(=O)n(CCN(C)C)ccc12)(c1ccccc1)C(F)(F)F [Compound 1616]
## Result 0 to 25%

## Task Specify reported inhibition at 0.3 µM for the molecule shown: CN(C)CCn1ccc2c(NC(=O)Cc3ccc(C(F)(F)F)cc3C(F)(F)F)cccc2c1=O [Compound 1618]
## Result 0 to 25%

## Task Identify the reported inhibition at 0.3 µM for the following entry. O=C(Cc1cccc(C(F)(F)F)c1F)Nc1cccc2c(=O)n(Cc3ccccn3)ccc12 [Compound 1627]
## Result 26 to 50%

## Task Name the recorded inhibition at 0.3 µM of the molecule listed here: COCCn1ccc2c(NC(=O)Cc3ccc(Cl)c(C(F)(F)F)c3)cccc2c1=O [Compound 1623]
## Result ≥ 76%

## Task Read off the recorded inhibition at 0.3 µM for CC(C)C(C(=O)Nc1cccc2c(=O)n(CCN(C)C)ccc12)c1ccc(Cl)cc1 (centres unmarked) [Compound 1612]
## Result 0 to 25%

## Task Query inhibition at 0.3 µM for CN(C)CCn1ccc2c(NC(=O)Cc3ccccc3Br)cccc2c1=O [Compound 1613]
## Result 0 to 25%
